Experiment: qHTS of pediatric cancer cell lines to identify multiple opportunities for drug repurposing: Primary screen for TC32 cells (AID 1347089); also: nearly all actives have a fitted effect of over 60% in size
Conditions: TC32 Ewing sarcoma viability, CellTiter-Glo luminescence, 48 h; series mostly up to 45.8 µM
Results filed as inconclusive are left out. Calls of active or inactive are those of the source. Calls follow the shape of the dose curve; as a rule, active = well fitted cell-killing curve with a large enough effect; inconclusive = small, poorly fitted or top-dose-only effect; inactive = flat fitted curve, though single readings scatter.
Would you mind answering with one of these outcomes? yes (active), no (inactive)

Solved cases (3 shown):
compound=COc1cc(OC)c(C=CS(=O)(=O)Cc2ccc(OC)c(NCC(=O)O)c2)c(OC)c1 classification=yes
compound=c1coc(CNc2ncnc3nc[nH]c23)c1 classification=no
compound=Cn1cc(C=CC(=O)c2cccc(F)c2)cc1C=CC(=O)NO classification=no

Here is the next item to consider.
Request: Short answer needed: outcome of this test for CCOC(=O)C1=C(C)NC(=S)NC1c1cccc(O)c1 (centres undefined) ?
Response: yes

----------
Experiment: Quantitative High-Throughput drug screen in 47 multiple myeloma cell lines against the NCATS MIPE library collection: KMS34_JCRB cell viability assay (AID 1918985); also: nearly all actives have a fitted effect of over 40% in size; also: potency is read from the fitted curve at half-maximal effect
Conditions: KMS34 myeloma viability, CellTiter-Glo ATP luminescence, 48 h; series mostly up to 45.8 µM
From the text: PI: Beverly A. Mock Ph.D. Laboratory of Cancer Biology and Genetics, Center for Cancer Research, National Cancer Institute, National Institute of Health, Bethesda, Maryland […] 5; Detector; 425V; Luminescence; Viewlux PerkinElmer. […] 1. […] Briefly, the corresponding myeloma cell lines were screened in 1,536-well plates with 500 cells, 5-uL per well for inhibition of cell viability (assessed by measuring ATP levels with CellTiterGlo). […]
Records with an inconclusive call do not appear. Activity calls are given as the source filed them. Calls come from the whole dose curve; as a rule, active = well fitted cell-killing curve with a large enough effect; inconclusive = small, poorly fitted or top-dose-only effect, or effect the other way; inactive = no such curve, though single readings can be large or run the other way.
Property: Potency

A selection of reference data follows.
compound_smiles=COc1ccc2cc([S+]([O-])Cc3ncc(C)c(OC)c3C)nc2c1 result=inactive
compound_smiles=CN1CCc2c(c3ccccc3n2Cc2ccc(C(=O)NO)cc2)C1 result="16.6 µM (active)"
compound_smiles=CC(C)N1[N]C(=C2C=c3cc(O)ccc3=N2)c2c(N)ncnc21 result="0.296 µM (active)"
compound_smiles=CN1CCCN(C(=O)c2cccc(-c3ccc(C=C4C(=O)Nc5ccc(Cl)cc54)o3)c2)CC1 result="16.6 µM (active)"

Would you kindly look at the next entry?
Request: For the compound C=CC1=C(C(=O)O)N2C(=O)[C@@H](NC(=O)C(=NO)c3csc(N)n3)[C@H]2SC1 , what Potency is on record?
Response: inactive

----------
System: KB-3-1
Assay: Cytotoxic Profiling of Annotated Libraries Using Quantitative High-Throughput Screening (AID 1296008); also: nearly all actives have a fitted effect of over 60% in size
Conditions: Five cell lines viability, CellTiter-Glo ATP luminescence, 48-72 h
Results filed as inconclusive are left out. Activity calls are given as the source filed them. Calls follow the shape of the dose curve; as a rule, active = well fitted inhibition curve with a large enough effect; inconclusive = small, poorly fitted or top-dose-only effect; inactive = flat fitted curve, though single readings scatter.
Would you mind answering with one of these outcomes? active, inactive

Solved cases (4 shown):
compound_smiles=CN(C)CCN1C(=O)c2cccc3cc(N)cc(c23)C1=O classification=active
compound_smiles=CCOC(=O)N1CCN([N+]([O-])=NOc2ccc([N+](=O)[O-])cc2[N+](=O)[O-])CC1 classification=inactive
compound_smiles=COc1cc([C@@H]2c3cc4c(cc3[C@H](O)[C@H]3COC(=O)[C@@H]23)OCO4)cc(OC)c1OC classification=active
compound_smiles=CC(C)N(CC[C@H](c1ccccc1)c1cc(CO)ccc1O)C(C)C classification=inactive

Request: Short answer needed: outcome of this test for COc1cccc2c1C(=O)c1c(O)c3c(c(O)c1C2=O)C[C@@](O)(C(=O)CO)C[C@H]3O[C@H]1C[C@H](N)[C@H](O)[C@H](C)O1 ?
Response: active

----------
Test system: CP194
Assay: qHTS profiling for inhibitors of Plasmodium falciparum proliferation (AID 504749); also: nearly all actives have a fitted effect of over 60% in size
Conditions: P. falciparum in erythrocytes, SYBR Green DNA, 72 h; series mostly up to 28.7 µM
Records with an inconclusive call do not appear. The source made the active and inactive calls. The call rests on the fitted dose curve; in most records, active means well fitted inhibition curve with a large enough effect; inconclusive means small, poorly fitted or top-dose-only effect; inactive means flat fitted curve, though single readings scatter.
Would you mind answering with one of these outcomes? true (1) (active), false (0) (inactive)

Solved cases (2 shown):
compound="CCCCCCCCCCCC(CC1OC(=O)C1CCCCCC)OC(=O)C(CC(C)C)NC=O (centres undefined)" classification="true (1)"
compound="COc1cccc2c1C(=O)c1c(O)c3c(c(O)c1C2=O)C[C@@](O)(C(=O)CO)C[C@@H]3O[C@H]1C[C@H](N)[C@H](OC2CCCCO2)[C@H](C)O1 (some centres undefined)" classification="true (1)"

Request: Short answer needed: outcome of this test for COc1ccc([C@@H]2CNC(=O)C2)cc1OC1CCCC1 ?
Response: false (0)

Request: Short answer needed: outcome of this test for CCC(C(=O)O)C1CCC(C)C(C(C)C(O)C(C)C(=O)C(CC)C2OC3(C=CC(O)[C@@]4(CC[C@](C)(C5CC[C@@](O)(CC)C(C)O5)O4)O3)C(C)CC2C)O1 (some centres undefined) ?
Response: true (1)

----------
Experiment: qHTS of pediatric cancer cell lines to identify multiple opportunities for drug repurposing: Confirmatory screen for RD cells (AID 1347124);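 also: cells exposed to compound for 48 h before viability readout; nearly all actives have a fitted effect of over 65% in size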
Settings: RD rhabdomyosarcoma cell viability; series mostly up to 45.9 µM
Records with an inconclusive call do not appear. Calls of active or inactive are those of the source. Calls follow the shape of the dose curve; as a rule, active = well fitted cell-killing curve with a large enough effect; inconclusive = small, poorly fitted or top-dose-only effect, or effect the other way; inactive = no such curve, though single readings can be large or run the other way.
Would you mind answering with one of these outcomes? True for active, False for inactive

compound_smiles=CC(C)C[C@H](NC(=O)[C@@H](NC(=O)c1cccc(-c2ccccc2)n1)[C@@H](C)O)B(O)O classification=True
compound_smiles=O=C(NCc1ccccc1)[C@H](Cc1ccccc1)NC(=O)[C@@H]1O[C@@H]1C(=O)NCCc1ccc(O)cc1 classification=False
compound_smiles=COc1cc([C@@H]2c3cc4c(cc3[C@H](O)[C@H]3COC(=O)[C@@H]23)OCO4)cc(OC)c1OC classification=True
compound_smiles=CC(=O)[C@]1(O)Cc2c(O)c3c(c(O)c2[C@@H](O[C@H]2C[C@H](N)[C@@H](O)[C@H](C)O2)C1)C(=O)c1ccccc1C3=O classification=True
compound_smiles=COc1ccc(C=Cc2cc(OC)c(OC)c(OC)c2)cc1NC(=O)[C@H](N)CO classification=True

Request: Short answer needed: outcome of this test for CS(=O)(=O)N1CCc2c(-c3cnc(N)nc3)nc(N3CCOCC3)nc21 ?
Response: True

Request: Short answer needed: outcome of this test for O=C(C=CC=Cc1ccc2c(c1)OCO2)N1CCCCC1 ?
Response: False

Request: Short answer needed: outcome of this test for Cc1[nH]c(C=C2C(=O)Nc3ccccc32)c(C)c1CCC(=O)O ?
Response: False

Request: Short answer needed: outcome of this test for CCOc1cc2ncc(C#N)c(Nc3ccc(OCc4ccccn4)c(Cl)c3)c2cc1NC(=O)C=CCN(C)C ?
Response: True

----------
Test system: MKL-2
Test: qHTS assay to identify novel small-molecules to repurpose for Merkel cell carcinoma treatment (AID 1296009); also: nearly all actives have a fitted effect of over 60% in size
Details: MCC and control cell lines, CellTiter-Glo viability, 72 h; series mostly up to 46 µM
Inconclusive results are not listed. The source made the active and inactive calls. Calls follow the shape of the dose curve; as a rule, active = well fitted inhibition curve with a large enough effect; inconclusive = small, poorly fitted or top-dose-only effect; inactive = flat fitted curve, though single readings scatter.
Would you mind answering with one of these outcomes? 1 (yes) (active), 0 (no) (inactive)

Solved cases (3 shown):
molecule=O=C(C=CC#Cc1cccc(NS(=O)(=O)c2ccccc2)c1)NO classification="1 (yes)"
molecule=CC[C@@]1([C@@H]2O[C@@H]([C@H]3O[C@@](O)(CO)[C@H](C)C[C@H]3C)C[C@H]2C)CC[C@H]([C@]2(C)CC[C@]3(C[C@H](O)[C@@H](C)[C@@H]([C@@H](C)[C@@H](OC)[C@H](C)C(=O)O)O3)O2)O1 classification="1 (yes)"
molecule=COc1ccc(C=Cc2cc(OC)c(OC)c(OC)c2)cc1NC(=O)[C@H](N)CO classification="1 (yes)"

Request: Short answer needed: outcome of this test for CCOC(=O)[C@H](CCc1ccccc1)N[C@@H](C)C(=O)N1[C@@H](C(=O)O)C[C@H]2CCC[C@@H]21 ?
Response: 1 (yes)

Request: Short answer needed: outcome of this test for CCOC(=O)C=C[C@H](C[C@@H]1CCNC1=O)NC(=O)[C@@H](CC(=O)[C@@H](NC(=O)c1cc(C)on1)C(C)C)Cc1ccc(F)cc1 ?
Response: 0 (no)

Request: Short answer needed: outcome of this test for Nc1ccc(C(=O)Nc2cccc(-c3nc(N4CCOCC4)c4oc5ncccc5c4n3)c2)cn1 ?
Response: 0 (no)

----------
Assay: Quantitative High-Throughput drug screen in 47 multiple myeloma cell lines against the NCATS MIPE library collection: Karpas620_DSMZ cell viability assay (AID 1918959); also: nearly all actives have a fitted effect of over 30% in size
Conditions: Karpas620 myeloma viability, CellTiter-Glo ATP luminescence, 48 h; series mostly up to 45.8 µM
Records with an inconclusive call do not appear. Activity calls are given as the source filed them. Calls follow the shape of the dose curve; as a rule, active = well fitted cell-killing curve with a large enough effect; inconclusive = small, poorly fitted or top-dose-only effect, or effect the other way; inactive = no such curve, though single readings can be large or run the other way.
Would you mind answering with one of these outcomes? Yes (active), No (inactive)

compound="CC(C)C[C@H](NC(=O)CNC(=O)c1cc(Cl)ccc1Cl)B1OC(=O)CC(CC(=O)O)(C(=O)O)O1 (stereo partly drawn)" classification=Yes
compound=c1cc(N[C@@H]2CCNC2)nc(-c2cnc3ccc(-c4cn[nH]c4)cn23)c1 classification=Yes
compound=OCCN1C[C@H](O)[C@@H](O)[C@H](O)[C@@H]1CO classification=No

Request: Short answer needed: outcome of this test for Oc1ccc([C@@H]2Oc3ccc(O)cc3[C@@H]3CCC[C@@H]32)cc1 ?
Response: No

Request: Short answer needed: outcome of this test for CC1(C)[C@H](O[C@H]2O[C@H](C(=O)O)[C@@H](O)[C@H](O)[C@H]2O[C@@H]2O[C@H](C(=O)O)[C@@H](O)[C@H](O)[C@H]2O)CC[C@@]2(C)[C@H]1CC[C@]1(C)[C@H]2C(=O)C=C2[C@H]3C[C@@](C)(C(=O)O)CC[C@]3(C)CC[C@]21C ?
Response: No

Request: Short answer needed: outcome of this test for CCN(CC)CCNC(=O)c1c(C)[nH]c(C=C2C(=O)Nc3ccc(F)cc32)c1C ?
Response: Yes

Request: Short answer needed: outcome of this test for N#Cc1c(C2CCNCC2)cc(-c2c(O)cccc2OCC2CC2)nc1N ?
Response: Yes

Request: Short answer needed: outcome of this test for C=CCNc1c(O)cc2c(O)c1C[C@@H](C)C[C@H](OC)[C@@H](O)[C@@H](C)C=C(C)[C@H](OC(N)=O)[C@@H](OC)C=CC=C(C)C(=O)N2 ?
Response: Yes
